Can you tell me TGI for the items I'm about to list?
Test system: MDA-MB-231 breast
PROCEDURE SUMMARY: NCI tumour cell line growth inhibition, 48 h
*1 amine or outer side, *2 acyl side, *3 side chain or, on linkers, in order; H or OH if unused. Where a SMILES comes first, the peptide text is derived from it. The star is where a group is joined. γGlu = O=C(O)[CH](CCC(=O)[*:2])N[*:1]; NHOH = ON*

Input line: Give its TGI value. Item: `O=c1cc(-c2cccc(Cl)c2)[nH]c2cc3c(cc12)OCO3`
Output line: 11.5 µM

Input line: `CC(C)(C)CNCCO` ?
Output line: > 100 µM

Input line: `NC(=O)N/N=C(\Cc1cc(=O)oc2cc(O)ccc12)C(=O)Nc1ccccc1C(N)=O` ?
Output line: > 100 µM

Input line: `O=S(=O)(O)c1cc(O)c(N=NC2S(=O)(=O)OCCOS2(=O)=O)c2ccccc12` ?
Output line: > 100 µM

Input line: `C[C@]12CC[C@H]3[C@@H](CC=C4C[C@@H](N5CCCC5)CC[C@@]43C)[C@@H]1C/C(=C\c1ccc([N+](=O)[O-])cc1)[C@@H]2O` ?
Output line: 30.2 µM

Input line: `CCCCOc1ccc(/C=C/C2=[N+](CCO)CCO2)cc1` ?
Output line: > 100 µM

Input line: `COc1cc2c(cc1OCCCCCOc1ccc(-c3nc4ccccc4s3)cc1)N=C[C@@H]1CCCN1C2=O` ?
Output line: 4.2 µM

Input line: `Oc1ccc(CCNc2nc3ccccc3c3[nH]c4ccccc4c23)cc1O` ?
Output line: 11.8 µM

Input line: `CCOc1cc(/C=C/C(=O)CC(=O)/C=C/c2ccc(OC(=O)CNc3nc4ccc(OC)cc4s3)c(OCC)c2)ccc1OC(=O)CNc1nc2ccc(OC)cc2s1` ?
Output line: 60 µM

Input line: Cc1ccc(S(=O)(=O)N(CC(O)COc2ccccc2)c2c(F)c(F)c(F)c(F)c2F)cc1 (configuration not stated) ?
Output line: 30.7 µM

Input line: `C[N+](C)(N)Cc1nc(-c2ccc(Cl)cc2)no1` ?
Output line: > 100 µM

Input line: `CN(C)c1ccc(-c2c(C#N)c(-c3ccccc3)n(NS(=O)(=O)c3ccccc3)c(=O)c2C#N)cc1` ?
Output line: > 100 µM

Input line: NC(CCC(=O)NC(CCC(=O)NO)C(=O)NCC(=O)O)C(=O)O (configuration not stated) (γGlu-Glu(NHOH)-Gly-OH; configuration not given here) ?
Output line: > 100 µM

Input line: COc1cccc2c1C(=O)c1c(O)c3c(c(O)c1C2=O)C[C@@](O)(C(=O)CO)C[C@@H]3OC1CC(N2CCOCC2)C(O)C(C)O1 (some centres not stated) ?
Output line: 0.433 µM

Input line: `COc1ccc2c(c1[N+](=O)[O-])CC[C@@H]1[C@@H]2CC[C@]2(C)C(=O)CC[C@@H]12` ?
Output line: > 905 µM

Input line: `CC1=NN(c2ccccc2)C(=O)/C1=C1\SC(c2ccccc2)(c2ccccc2)c2ccccc21` ?
Output line: > 100 µM

Input line: `CN1CCN(c2cc(F)c(NC3=C(Cl)C(=O)c4ncccc4C3=O)c(F)c2)CC1` ?
Output line: 3.87 µM

Input line: `COc1ccc(-c2nn3ncccc3c2-c2ccnc(Nc3ccc(F)c(F)c3)n2)cc1` ?
Output line: > 25 µM

Input line: `CC(C)OC(=O)Nc1c([N+](=O)[O-])cc(C(F)(F)F)cc1[N+](=O)[O-]` ?
Output line: > 100 µM

Input line: CC(C)CC(NC(=O)C(O)C(N)Cc1ccccc1)C(=O)O (configuration not stated) ?
Output line: > 100 µM

Input line: `N#CSc1c[nH]c2ccc(/C=C/C(=O)/C=C(O)/C=C/c3ccc4[nH]cc(SC#N)c4c3)cc12` ?
Output line: 3.61 µM

Input line: C/C(=C\CCC1=CC(=O)OC1)CCC1C2C(=O)CC(C)[C@@]3(C)CC[C@]1(C)[C@@]23C (some centres not stated) ?
Output line: > 10 µM

Input line: `CCOC(=O)CCCN` ?
Output line: > 100 µM

Input line: `COP(=O)(OC)[C@@](O)(c1ccccc1)[C@@H](O)[C@H](O)c1ccccc1` ?
Output line: > 100 µM

Input line: O=[N+]([O-])C1=Cc2c(O)ccc(O)c2C2OC=CC12 (configuration not stated) ?
Output line: 40.1 µM

Input line: CCN(CC)CCN1C(=O)C2C3C(C)=CC(OC(C)=O)(CC3C)C2C1=O (configuration not stated) ?
Output line: > 100 µM

Input line: `O=C(Nc1ccccc1/C=C/c1n[nH]c2ccccc12)c1ccccc1` ?
Output line: 15.7 µM

Input line: COC(=O)C12C(=O)CC3CCC1C32C(=O)OC (configuration not stated) ?
Output line: > 100 µM

Input line: CC(Nc1cccc(Cl)c1)c1ccncc1 (configuration not stated) ?
Output line: > 100 µM

Input line: `COCCn1c(Nc2ccc(C(=O)NO)cc2)nc2ccccc21` ?
Output line: 44.7 µM

Input line: `O=C(O)c1c2c(c(O)c3c1CN(C1CCCCC1)CO3)OCN(C1CCCCC1)C2` ?
Output line: > 100 µM

Input line: `O=C(Nc1ccc(Cl)cc1)c1cc(S(=O)(=O)Nc2nc3ncccc3[nH]2)c(SSc2cc(Cl)c(C(=O)Nc3ccc(Cl)cc3)cc2S(=O)(=O)Nc2nc3ncccc3[nH]2)cc1Cl` ?
Output line: > 100 µM

Just for reference, PubChem BioAssay (NCI) is where these values come from.
